# Experimental target: chimeric BTLA of humanised-BTLA mice (human extracellular region, murine transmembrane and signaling … (human; mouse, UniProt Q7TSA3 184-306, limits assumed)
# Sequence (Q7TSA3 other isoform, or with tags, fused parts or gaps mutant limits assumed): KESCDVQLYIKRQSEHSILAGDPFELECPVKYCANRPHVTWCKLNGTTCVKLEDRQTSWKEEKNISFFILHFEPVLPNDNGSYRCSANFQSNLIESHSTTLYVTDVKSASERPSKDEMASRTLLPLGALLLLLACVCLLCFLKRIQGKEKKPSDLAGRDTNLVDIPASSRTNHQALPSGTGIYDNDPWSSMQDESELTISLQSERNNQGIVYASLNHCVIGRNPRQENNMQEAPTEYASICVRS
# Method summary: cell-based or functional assay
Endpoint label: MLR (CD4 T cell proliferation) repeat 2, % inhibition (%)

• 2.8.6 (antibody, IgG1, V domains shown) VH: QVQLKESGPGLVAPSQSLSITCTVSGFSLTTYGVHWVRQSPGKGLEWLGVMWPGGRTSYNPAPMSRLSISKDNSKSQVFLKMNSLQTDDTAMYYCVRGDYEYDYYAMDYWGQGTSVTVSS VL: QIVLSQSPAILSASPGEKVTMTCRASSSVSYMHWYQQKPGSSPKPWIYATSNLASGVPARFSGSGSGTSYSLTISRMEAEDAATYYCHQWSSNPYTFGGGTKLEIK = 36
• 15C6 (antibody, IgG1, V domains shown) VH: QVQLQQSGPELVKPGASVKISCKASGYAFSSSWMNWVKQRPGKGLEWIGRIYPGDGDTNYNGKFKGKATLTADKSSSTAYMQLSSLTSEDSAVYFCARRGYGYLAYWGQGTLVTVSA VL: DIVMTQSHKFMSTSVGDRVSITCKASQDVSTAVAWYQQKPGQSPKLLIYSASYRYTGVPDRFTGSGSGTDFTFTISSVQAEDLAVYYCQQHYSTPYTFGGGTKLEIK = 8
